# system-tested: Vascular endothelial growth factor receptor 1 (Homo sapiens, UniProt P17948)
# Sequence (P17948 whole entry): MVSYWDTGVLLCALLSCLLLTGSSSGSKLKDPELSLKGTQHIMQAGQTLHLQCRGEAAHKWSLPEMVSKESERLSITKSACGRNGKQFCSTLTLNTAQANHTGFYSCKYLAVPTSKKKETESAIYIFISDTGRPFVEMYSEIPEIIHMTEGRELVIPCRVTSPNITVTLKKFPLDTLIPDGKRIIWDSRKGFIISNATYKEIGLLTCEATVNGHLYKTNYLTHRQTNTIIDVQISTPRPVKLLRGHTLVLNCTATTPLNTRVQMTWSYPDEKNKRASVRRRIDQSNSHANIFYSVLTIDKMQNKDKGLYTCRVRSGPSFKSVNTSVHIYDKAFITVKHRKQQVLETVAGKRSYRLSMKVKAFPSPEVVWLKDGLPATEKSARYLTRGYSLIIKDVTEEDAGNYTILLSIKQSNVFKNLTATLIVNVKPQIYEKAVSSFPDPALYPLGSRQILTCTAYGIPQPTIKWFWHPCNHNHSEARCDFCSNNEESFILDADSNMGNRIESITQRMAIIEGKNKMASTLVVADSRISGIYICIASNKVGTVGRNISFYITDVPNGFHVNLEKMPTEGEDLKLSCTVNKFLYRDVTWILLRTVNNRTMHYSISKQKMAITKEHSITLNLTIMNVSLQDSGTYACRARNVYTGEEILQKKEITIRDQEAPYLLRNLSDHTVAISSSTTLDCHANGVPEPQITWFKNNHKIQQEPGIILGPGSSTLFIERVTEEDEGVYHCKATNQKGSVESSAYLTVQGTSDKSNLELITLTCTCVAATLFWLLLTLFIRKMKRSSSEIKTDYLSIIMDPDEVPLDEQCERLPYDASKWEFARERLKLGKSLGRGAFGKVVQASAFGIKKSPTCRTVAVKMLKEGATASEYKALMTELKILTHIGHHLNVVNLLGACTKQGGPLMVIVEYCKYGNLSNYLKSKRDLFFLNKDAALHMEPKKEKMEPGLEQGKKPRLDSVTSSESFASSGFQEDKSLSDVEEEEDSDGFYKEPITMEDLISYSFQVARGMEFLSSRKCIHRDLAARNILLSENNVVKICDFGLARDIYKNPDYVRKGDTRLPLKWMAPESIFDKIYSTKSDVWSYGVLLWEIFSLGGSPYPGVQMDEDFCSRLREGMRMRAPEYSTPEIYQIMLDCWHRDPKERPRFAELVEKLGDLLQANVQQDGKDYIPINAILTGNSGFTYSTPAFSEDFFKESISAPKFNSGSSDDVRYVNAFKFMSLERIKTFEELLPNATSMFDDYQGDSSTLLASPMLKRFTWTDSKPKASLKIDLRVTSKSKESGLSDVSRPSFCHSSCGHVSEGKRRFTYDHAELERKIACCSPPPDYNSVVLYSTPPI
pIC50: −log10 of the molar value.
recorded-metric: pIC50

Record excerpt, results attached:
# smi, recorded-metric, result-value
records = [
    ("Cc1nc(Nc2cc(-c3ccc(CNC(=O)OCc4cc(C)on4)cc3)n[nH]2)cc(N2CCN(C)CC2)n1", "pIC50", "< 6.00"),
    ("Cc1nc(Nc2cc(-c3ccc(CNC(=O)OCc4cccnc4)cc3)n[nH]2)cc(N2CCN(C)CC2)n1", "pIC50", "< 6.00"),
    ("CN1CCN(c2ccc(C(=O)Nc3cc(-c4ccc(CNS(=O)(=O)c5ccccc5)cc4)n[nH]3)cc2)CC1", "pIC50", "< 6.00"),
    ("Cc1nc(Nc2cc(-c3ccc(CNC(=O)OCc4cc(C)on4)cc3)n[nH]2)cc(N2CCN(CCO)CC2)n1", "pIC50", "< 6.00"),
    ("O=C(NCc1ccc(-c2cc(NC(=O)c3ccc(OCCN4CCCC4)cc3)[nH]n2)cc1)OCc1cccnc1", "pIC50", "< 6.00"),
]

Please look at the following compound next.
Form field, pIC50 with Vascular endothelial growth factor receptor 1 (Homo sapiens, UniProt P17948), item "CN1CCN(c2ccc(C(=O)Nc3cc(-c4ccc(NS(=O)(=O)c5ccccc5)cc4)n[nH]3)cc2)CC1" : < 6.00

Taken from ChEMBL document CHEMBL2062390.
